biological target: UniProt:Q9Y5S2; experiment: MRCKβ kinase assay (IMAP fluorescence polarization); format: biochemical; details: 1 μM ATP; read-out: MRCK-B Average Ki
reported-metric: Ki

The examples below pair each entry with its known result.
# molecule, Ki
measured = [
    ("CN(C)c1ccnc2[nH]cc(C#N)c12 [Example E31]", "16.7 nM"),
    ("c1ncc(-c2c[nH]c3nccc(N4CCCNCC4)c23)cn1 [Example E44]", "4.5 nM"),
    ("Cc1noc(C)c1-c1c[nH]c2nccc(N3CCCC4(CCCCN4)C3)c12 (stereo not shown) [Example E167]", "108 nM"),
]

Respectfully, I request Ki for each entry included below.
1. CNCC1CCCN(c2ccnc3[nH]cc(-c4cncnc4)c23)C1 (stereo not shown) [Example E90]
2. Cc1[nH]ncc1-c1c[nH]c2nccc(N3CCC[C@H](N)C3)c12 [Example E61]
3. CN[C@H]1CCCN(c2ccnc3[nH]cc(-c4cnsc4)c23)C1 [Example E67]
4. Cc1ncc(-c2c[nH]c3nccc(N4CCCC5(CCCCN5)C4)c23)cn1 (stereo not shown) [Example E166]
5. c1ccc2c(-c3c[nH]c4nccc(N5CCCCC5)c34)n[nH]c2c1 [Example E17]
6. c1ncc(-c2c[nH]c3nccc(OC4CCCNCC4)c23)cn1 (stereo not shown) [Example E216]
7. N#Cc1c[nH]c2nccc(N3CCCC4(CCCCN4)C3)c12 (stereo not shown) [Example E165]

output:
6.01 nM
11.5 nM
0.273 nM
0.786 nM
696 nM
1.78 nM
0.249 nM

###

target: MRCKβ (Homo sapiens (Human)); experiment: MRCKβ kinase assay (IMAP fluorescence polarization); assay type: biochemical; settings: 1 μM ATP; read-out: MRCK-B Average Ki
Give Ki for every item shown.
Give the value; after it, write the unit.

The examples below pair each entry with its known result.
# compound, reported-metric, experimental-value
rows = [
    ("OCCN[C@H]1CCCN(c2ccnc3[nH]cc(-c4cncnc4)c23)C1 [Example E56]", "Ki", "2.23 nM"),
    ("NCC1CCCN(c2ccnc3[nH]cc(-c4cncnc4)c23)C1 (stereo not shown) [Example E86]", "Ki", "1.85 nM"),
    ("CN[C@H]1CCCN(c2ccnc3[nH]cc(-c4cncnc4)c23)C1 [Example E57]", "Ki", "2.34 nM"),
    ("Nc1ccc(-c2c[nH]c3nccc(N4CCCCC4)c23)cn1 [Example E10]", "Ki", "51.8 nM"),
]

Respectfully, I request Ki for each entry included below.
1. N#Cc1c[nH]c2nccc(N3CCCCC3Cc3ccccc3)c12 (stereo not shown) [Example E106]
2. CN1CCCN(c2ccnc3[nH]cc(-c4cncnc4)c23)CC1 [Example E103]
3. CCN[C@H]1CCCN(c2ccnc3[nH]cc(-c4cncnc4)c23)C1 [Example E79]
4. c1ncc(-c2c[nH]c3nccc(N[C@@H]4CCCNC4)c23)cn1 [Example E88]
5. c1ncc(-c2c[nH]c3nccc(OC[C@@H]4CCCNC4)c23)cn1 [Example E214]

output:
["805 nM", "18.7 nM", "2.27 nM", "7.21 nM", "1.07 nM"]

###

test system: pMLC2; assay: pMLC2 immunofluorescence, Operetta high-throughput imaging; format: cell-based, human; details: Homo sapiens, light or radiation study; irradiated G7 and E2 cells
reported-metric: IC50 (µM)
Answers are plain numbers, in µM.

input: IC50 for c1cc(-c2c[nH]c3nccc(N4CCC[C@@]5(CCCCN5)C4)c23)ncn1 [Example E117] ?
output: 0.056

###

molecular target: MRCKβ (Homo sapiens (Human), UniProt Q9Y5S2); assay: MRCKβ kinase assay (IMAP fluorescence polarization); type: biochemical; settings: 1 μM ATP; read-out: MRCK-B Average Ki
# label = bin(measured Ki), where bins are lower range: < 0.5 nM; middle range: ≥ 0.5 nM and < 20 nM; upper range: ≥ 20 nM

Use the examples below as a reference point.
# compound, class-assignment
data = [
    ("c1ccc(-c2c[nH]c3nccc(N4CCC4)c23)nc1", "upper range"),
    ("O[C@@H]1CCCN(c2ccnc3[nH]cc(-c4cncnc4)c23)C1", "upper range"),
    ("c1cc(-c2c[nH]c3nccc(O[C@@H]4CCCNC4)c23)ncn1", "lower range"),
    ("CNC1CCCN(c2ccnc3[nH]cc(-c4cncnc4)c23)CC1 (stereo not drawn)", "middle range"),
    ("c1ncc(-c2c[nH]c3nccc(O[C@@H]4CCCNC4)c23)cn1", "middle range"),
]

input: Lab note: which band did `CN[C@H]1CCCN(c2ccnc3[nH]cc(-c4ccncn4)c23)C1` land in?
output: lower range

input: Lab note: which band did c1ncc(-c2c[nH]c3nccc(N4CCCC5(CCCNC5)C4)c23)cn1 (stereo not drawn) land in?
output: middle range

###

target: MRCKβ (Homo sapiens (Human)); experiment: MRCKβ kinase assay (IMAP fluorescence polarization); assay type: biochemical; details: 1 μM ATP; read-out: MRCK-B Average Ki
pKi: −log10 of the molar value.
# label = bin(measured pKi), where bins are range 1 (below 8), range 2 (8 to below 9), range 3 (9 or more)

# compound, class-assignment
measured = [
    ("CN[C@H]1CCCN(c2ccnc3[nH]cc(-c4cn[nH]c4)c23)C1", "range 2"),
    ("c1cc(N2CCC[C@@]3(CCCCN3)C2)c2c(-c3ccsn3)c[nH]c2n1", "range 3"),
    ("c1ncc(-c2c[nH]c3nccc(N4CC[C@]5(CCCCN5)C4)c23)cn1", "range 1"),
    ("NC1CN(c2ccnc3[nH]cc(-c4ccncn4)c23)CCC1F (stereo not shown)", "range 3"),
    ("CN1CCCN(C(=O)[C@@H]2CCCN2c2ccnc3[nH]cc(C#N)c23)CC1", "range 1"),
    ("CC1(N)CCCN(c2ccnc3[nH]cc(-c4cncnc4)c23)C1 (stereo not shown)", "range 3"),
    ("c1ncc(-c2c[nH]c3nccc(N4CCC[C@H](N5CCCC5)C4)c23)cn1", "range 2"),
    ("CNC1CCCN(c2ccnc3[nH]cc(-c4cncnc4)c23)C1 (stereo not shown)", "range 2"),
    ("N#Cc1c[nH]c2nccc(N3CCCC(c4ccccc4)C3)c12 (stereo not shown)", "range 1"),
    ("c1csc(-c2c[nH]c3nccc(N4CCC5(CCCN5)C4)c23)n1 (stereo not shown)", "range 3"),
]

input: Lab note: which band did `c1cc(N2CCCCC2)c2c(-c3ccc4[nH]ncc4c3)c[nH]c2n1` land in?
output: range 1

input: Lab note: which band did `Brc1cnc2[nH]cc(-c3cc[nH]n3)c2c1N1CCCCC1` land in?
output: range 1

input: Lab note: which band did `N#Cc1cncc(-c2c[nH]c3nccc(N4CCCCC4)c23)c1` land in?
output: range 1

###

target: MRCKβ (Homo sapiens (Human), UniProt Q9Y5S2); test: MRCKβ kinase assay (IMAP fluorescence polarization); format: biochemical; conditions: 1 μM ATP; read-out: MRCK-B Average Ki
Give pKi for every item shown.
One number for each entry, as −log10 of the molar value.

The examples below pair each entry with its known result.
# compound, pKi
rows = [
    ("N#Cc1cc(-c2c[nH]c3nccc(N4CCCCC4)c23)cnc1N [Example E7]", 6.45),
    ("Fc1cncc(-c2c[nH]c3nccc(N4CCCCC4)c23)c1 [Example E11]", 7.37),
    ("N#Cc1c[nH]c2nccc(N3CCC[C@@]4(CCCCN4)C3)c12 [Example E187]", 9.75),
    ("N[C@H]1CCCN(c2ccnc3[nH]cc(-c4cncnc4)c23)C1 [Example E69]", 8.57),
    ("c1ncc(-c2c[nH]c3nccc(OC[C@H]4CCNC4)c23)cn1 [Example E215]", 8.41),
]

Respectfully, I request pKi for each entry included below.
1. c1ncc(-c2c[nH]c3nccc(N4CCC[C@H](NC5CC5)C4)c23)cn1 [Example E81]
2. Cc1cnc(-c2c[nH]c3nccc(N4CC[C@]5(CCCCN5)C4)c23)s1 [Example E130]
3. c1cc(-c2c[nH]c3nccc(N4CCCNCC4)c23)cnn1 [Example E43]

output:
8.47
8.14
8.58

input: Under MRCKβ (Homo sapiens (Human), UniProt Q9Y5S2): pKi value of CC1(N)CCCN(c2ccnc3[nH]cc(-c4nccs4)c23)C1 (stereo not drawn) [Example E176] ?
output: 10.03

###

biological target: ROCK2 (Homo sapiens (Human), UniProt O75116); experiment: ROCK2 kinase assay (IMAP fluorescence polarization); format: biochemical; details: 1 μM ATP; read-out: ROCK2 Average Ki
Sequence (O75116 whole entry): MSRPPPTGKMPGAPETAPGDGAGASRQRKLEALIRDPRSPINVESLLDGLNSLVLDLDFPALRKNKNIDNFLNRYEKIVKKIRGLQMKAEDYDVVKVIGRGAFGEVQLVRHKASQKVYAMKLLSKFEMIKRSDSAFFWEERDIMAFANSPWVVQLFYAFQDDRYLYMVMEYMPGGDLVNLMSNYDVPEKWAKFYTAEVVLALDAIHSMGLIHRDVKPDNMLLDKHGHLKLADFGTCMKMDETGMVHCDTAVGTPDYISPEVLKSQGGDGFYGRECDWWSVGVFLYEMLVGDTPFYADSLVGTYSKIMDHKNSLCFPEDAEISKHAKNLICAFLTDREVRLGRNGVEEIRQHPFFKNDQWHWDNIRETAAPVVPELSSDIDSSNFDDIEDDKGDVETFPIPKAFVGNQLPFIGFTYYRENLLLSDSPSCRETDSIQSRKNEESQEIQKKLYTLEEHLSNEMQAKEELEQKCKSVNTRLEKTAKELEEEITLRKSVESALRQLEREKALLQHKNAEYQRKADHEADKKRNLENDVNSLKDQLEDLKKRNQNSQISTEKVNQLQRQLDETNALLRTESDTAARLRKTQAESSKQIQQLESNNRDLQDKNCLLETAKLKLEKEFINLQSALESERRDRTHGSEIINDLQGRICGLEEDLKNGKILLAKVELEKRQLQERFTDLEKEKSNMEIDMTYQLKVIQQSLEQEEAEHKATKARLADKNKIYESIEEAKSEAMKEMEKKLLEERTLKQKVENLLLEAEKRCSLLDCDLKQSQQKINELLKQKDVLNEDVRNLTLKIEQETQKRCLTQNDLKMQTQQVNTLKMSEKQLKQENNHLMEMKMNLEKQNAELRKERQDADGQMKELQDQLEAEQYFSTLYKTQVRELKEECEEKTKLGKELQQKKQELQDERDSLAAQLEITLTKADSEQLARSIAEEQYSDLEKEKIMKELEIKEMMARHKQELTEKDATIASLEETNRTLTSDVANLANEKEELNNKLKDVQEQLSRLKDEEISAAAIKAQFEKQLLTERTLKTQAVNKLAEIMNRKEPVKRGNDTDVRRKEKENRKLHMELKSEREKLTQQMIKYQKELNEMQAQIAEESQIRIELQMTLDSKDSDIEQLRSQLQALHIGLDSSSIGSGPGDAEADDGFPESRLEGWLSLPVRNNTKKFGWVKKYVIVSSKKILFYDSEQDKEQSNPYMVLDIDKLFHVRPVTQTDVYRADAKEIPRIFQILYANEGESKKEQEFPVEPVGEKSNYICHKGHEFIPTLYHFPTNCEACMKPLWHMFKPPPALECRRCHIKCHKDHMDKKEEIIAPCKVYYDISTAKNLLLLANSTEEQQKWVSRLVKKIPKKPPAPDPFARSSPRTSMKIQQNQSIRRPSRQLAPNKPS
reported-metric: pKi
Answers are plain numbers, as −log10 of the molar value.

# compound, pKi
records = [
    ("c1cc(-c2c[nH]c3nccc(N4CCCC5(CCCCN5)C4)c23)ncn1 (stereo not shown) [Example E168]", 7.51),
]

Respectfully, I request pKi for each entry included below.
1. COC[C@@H]1CCCN1c1ccnc2[nH]cc(C#N)c12 [Example E108]
2. CN1CCN(c2ccnc3[nH]cc(C#N)c23)CC1 [Example E32]
3. c1ncc(-c2c[nH]c3nccc(N4CCCC5(CCCNC5)C4)c23)cn1 (stereo not shown) [Example E194]
4. c1ncc(-c2c[nH]c3nccc(N4CC[C@@]5(CCCCN5)C4)c23)cn1 [Example E126]
5. OC1CCN([C@H]2CCCN(c3ccnc4[nH]cc(-c5cncnc5)c34)C2)CC1 [Example E92]

output:
7.73
6.79
7.27
7.64
5.82
